The measurements presented in this section are drawn from PubChem BioAssay.

TEST_SUMMARY: plasmodial surface anion channel blockers, osmotic lysis – cell-based, P. falciparum Indochina, OD700, 2 h, primary screen (AID 1155);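 note: lysis reports solute entry through the parasite surface anion channel PSAC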
RUN_CONDITIONS: P. falciparum Indochina infected erythrocytes, higher = more signal, called active from +8 up or from −8 down
Our labelling divides records by z-score into ranges: bucket A = under 0.5, bucket B = from 0.5 up to 1, bucket C = 1 and over

Problem: Band of `O=C(O)[C@@]1(CCS(=O)(=O)c2ccccc2)N=C(c2ccc(OCCCO)cc2)O[C@H]1c1ccccc1` ?
Result: bucket C

Problem: Also `COc1ccc(C(=O)Nc2ccc(CN3C(=O)[C@]4(O[C@H](CC(=O)N5CCC[C@H]5CO)[C@@H]([Si](C)(C)c5ccc(OC)cc5)[C@@H]4C)c4ccccc43)cc2)cc1` , if possible.
Result: bucket C

Problem: Also `CCCCCCc1nc(-c2ccc(-c3ccc(Cl)c(Cl)c3)o2)c(C)c2c1[Si](C(C)C)(C(C)C)OC2` , if possible.
Result: bucket A

Problem: Also `CCCC[C@H]1C[C@@H]1[C@@H]1N(P(=O)(c2ccccc2)c2ccccc2)C[C@@](O)(c2ccccc2)CC12CC2` , if possible.
Result: bucket C

Problem: Also `COc1cc(CO)cc(I)c1O[C@H]1C=C(C(=O)NCCO)C[C@@H](NC[C@@H]2CCCO2)[C@@H]1O` , if possible.
Result: bucket B

Problem: Also `CO[C@H]1O[C@H](CO)[C@@H](OC(=O)Nc2ccccc2-c2ccccc2)[C@H](OC(=O)Nc2ccccc2-c2ccccc2)[C@@H]1OC(=O)Nc1ccccc1-c1ccccc1` , if possible.
Result: bucket C

Problem: Also `COc1ccc(CCNC(=O)[C@@]2(c3ccc([N+](=O)[O-])cc3)CC(=O)N(CC34CC5CC(CC(C5)C3)C4)[C@@H]2c2ccc(CO)cc2I)cc1` , if possible.
Result: bucket C

Problem: Also `C[N+](C)(C)CCCC[C@@H]1NC(=O)[C@@H]2C[C@H](C(=O)NCCCCCCNC(=O)CS)[C@H](c3ccc(O)cc3)N2C1=O` , if possible.
Result: bucket A

Problem: Also `COC(=O)c1c2oc(c1C(=O)OC)C(=O)N[C@@H](C(C)C)Cn1cc(nn1)C1(CCCCC1)NC(=O)N[C@H](CO)CC2` , if possible.
Result: bucket B

Problem: Also `C#CCN(C/C=C/c1ccccc1)[C@H](CO)c1ccccc1` , if possible.
Result: bucket B

Problem: Also `C#CCN1[C@@H](Cc2ccc(O)cc2)C(=O)O[C@H](Cc2ccccc2)[C@@H]1/C=C/C1CC1` , if possible.
Result: bucket A

Problem: Also `[N-]=[N+]=Nc1ccccc1C[C@@]1(C(=O)N2CCCCC2)N=C(c2ccc(OCCCO)cc2)O[C@@H]1c1ccccc1` , if possible.
Result: bucket C

Problem: Also CCCCN1CC=CC23O[C@@H]4/C=C\CCCOC(=O)C4[C@H]2C(=O)N(CCCCCO)[C@@H]3C1=O (stereo not given in full) , if possible.
Result: bucket A

Problem: Also `COc1ccc(-c2cc3c(c(Cc4ccccc4)n2)[Si](C(C)C)(C(C)C)OC3)cn1` , if possible.
Result: bucket A

Problem: Also `CC(C)OC(=O)C=C1C[C@@H](c2cccc(Cl)c2)O[C@@H](c2cccc(Cl)c2)O1` , if possible.
Result: bucket B
